All figures here come from patent US12331068B2.

Target: CD73 on U138 human neuroglioma cells (Homo sapiens, UniProt P21589)
Construct: U138 cells were obtained from ATCC and cultured in DMEM with 10% FBS; host or cells: U138 human neuroglioma cells
Sequence (P21589 27-549): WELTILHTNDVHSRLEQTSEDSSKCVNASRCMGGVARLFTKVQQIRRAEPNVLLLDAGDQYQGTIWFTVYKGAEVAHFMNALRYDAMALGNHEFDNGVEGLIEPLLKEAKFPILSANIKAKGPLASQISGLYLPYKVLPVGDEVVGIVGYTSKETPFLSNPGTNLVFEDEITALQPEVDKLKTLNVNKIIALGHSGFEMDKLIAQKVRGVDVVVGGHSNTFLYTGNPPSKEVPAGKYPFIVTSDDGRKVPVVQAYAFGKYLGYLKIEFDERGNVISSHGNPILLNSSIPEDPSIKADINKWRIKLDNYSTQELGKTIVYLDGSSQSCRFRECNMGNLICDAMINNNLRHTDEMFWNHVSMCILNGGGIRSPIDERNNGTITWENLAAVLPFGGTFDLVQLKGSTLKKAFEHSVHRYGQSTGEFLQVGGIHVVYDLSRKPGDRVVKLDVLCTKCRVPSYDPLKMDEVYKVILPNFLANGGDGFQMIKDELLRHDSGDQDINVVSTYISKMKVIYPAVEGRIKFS
Assay: CD73 Cell-Based Assay (inorganic phosphate from AMP, malachite green)
Details: AMP substrate, 2 hours at 37° C., read-out: CD73 Cell-Based assay IC50
# maps each entry to its IC50

| Molecule | IC50 |
| --- | --- |
| N#Cc1c(Cl)nc2c(ccn2[C@@H]2O[C@H](CS(=O)(=O)CP(=O)(O)O)[C@@H](O)[C@H]2O)c1NC1CC2CC2C1 (stereo partly drawn) [Compound 33] | < 10 nM |
| C[C@H](Nc1c(C#N)c(Cl)nc2c1cnn2[C@@H]1O[C@H](CS(=O)(=O)CP(=O)(O)O)[C@@H](O)[C@H]1O)c1ccc(C#N)cc1 [Compound 185] | < 10 nM |
| C[C@@H](Nc1c(C#N)c(Cl)nc2c1ncn2[C@@H]1O[C@H](COP(=O)(O)CP(=O)(O)O)[C@@H](O)[C@H]1O)c1ccc(F)cc1 [Compound 214] | < 10 nM |
| N#Cc1c(Cl)nc2c(ccn2[C@@H]2O[C@H](COC(CO)P(=O)(O)O)[C@@H](O)[C@H]2O)c1N1CC2CCCC2C1 (stereo partly drawn) [Compound 51] | < 10 nM |
| N#Cc1c(Cl)nc2c(ccn2[C@@H]2O[C@H](COCP(=O)(O)O)[C@@H](O)[C@H]2O)c1N1CC(F)(F)C1 [Compound 65] | < 10 nM |
| C[C@@H](Nc1c(C#N)c(Cl)nc2c1cnn2[C@@H]1O[C@H](CS(=O)(=O)CP(=O)(O)O)[C@@H](O)[C@H]1O)c1ccc(F)cc1 [Compound 191] | < 10 nM |

----------
biological target: CD73 on U138 human neuroglioma cells (Homo sapiens, UniProt P21589); construct: U138 cells were obtained from ATCC and cultured in DMEM with 10% FBS; host or cells: U138 human neuroglioma cells; assay: CD73 Cell-Based Assay (inorganic phosphate from AMP, malachite green); conditions: AMP substrate, 2 hours at 37° C., read-out: CD73 Cell-Based assay IC50
Assay Metric: IC50

| Compound | System Tested | Experimental Result |
| --- | --- | --- |
| N#Cc1c(Cl)nc2c(ncn2[C@@H]2O[C@H](COCP(=O)(O)O)[C@@H](O)[C@H]2O)c1N1CC2CCCC2C1 (stereo partly drawn) [Compound 57] | CD73 on U138 human neuroglioma cells (Homo sapiens, UniProt P21589) | < 10 nM |
| N#Cc1c(Cl)nc2c(ncn2[C@@H]2O[C@H](COCP(=O)(O)O)[C@@H](O)[C@H]2O)c1N1C[C@@H](F)[C@H](F)C1 [Compound 93] | CD73 on U138 human neuroglioma cells (Homo sapiens, UniProt P21589) | < 10 nM |
| C[C@@H](Nc1c(C#N)c(Cl)nc2c1ccn2[C@@H]1O[C@H](COP(=O)(O)CP(=O)(O)O)[C@@H](O)[C@@H]1F)c1ccc(F)cc1 [Compound 229] | CD73 on U138 human neuroglioma cells (Homo sapiens, UniProt P21589) | < 10 nM |
